target: Transthyretin (Homo sapiens) (UniProt P02766); assay: Stabilization of wild type human transthyretin expressed in Escherichia coli BL21(DE3) assessed as decrease in TTR-amyloid beta fibril formation at 10 uM preincubated for 6 hrs with transthyretin followed by measuring after 96 hrs maintaining pH of 4.4 by thioflavin T binding assay relative to control
The source made the active and inactive calls. No cut-off for these calls is given here.
Choose the fitting class; nothing outside active, inactive is accepted.

1. O=C(O)CO/N=C/c1ccccc1OCC(=O)O	inactive

What classification did O=C(O)CCO/N=C/c1cccc(O)c1 end up with in this test?
active

What classification did O=C(O)CCO/N=C/c1cc(Br)cc(Br)c1O end up with in this test?
active

What classification did O=C(O)CCO/N=C/c1ccc(O)cc1 end up with in this test?
active

----------
target: Transthyretin (Homo sapiens) (UniProt P02766); test: Stabilization of wild type human transthyretin expressed in Escherichia coli BL21(DE3) assessed as fibril formation at 7.2 uM preincubated for 30 mins with transthyretin followed by measuring after 72 hrs maintaining pH of 4.4 by UV-Visible spectrophotometer relative to control
Attribute measured: Activity (%)
Give a bare numeral; the unit % is implied.

Sample records with Activity:
1) O=C(O)CO/N=C/c1ccccc1OCC(=O)O	100
2) O=C(O)CO/N=C/c1ccc(O)cc1	59
3) O=C(O)CO/N=C/c1cc(Br)cc(Br)c1O	35
4) O=C(O)c1cc(-c2ccc(F)cc2F)ccc1O	9
5) O=C(O)CCO/N=C/c1cccc(O)c1	42

Specify Activity for O=C(O)CCO/N=C/c1ccc(O)cc1O and stop.
38

Specify Activity for O=C(O)CO/N=C/c1ccc(OCC(=O)O)cc1 and stop.
80

Specify Activity for O=C(O)CCO/N=C/c1ccc(O)c(O)c1 and stop.
34

Specify Activity for O=C(O)CCO/N=C/c1ccc(O)cc1 and stop.
17

----------
target: Transthyretin (Homo sapiens) (UniProt P02766); experiment: Stabilization of wild type human transthyretin expressed in Escherichia coli BL21(DE3) assessed as decrease in TTR-amyloid beta fibril formation at 10 uM preincubated for 6 hrs with transthyretin followed by measuring after 96 hrs maintaining pH of 4.4 by thioflavin T binding assay relative to control
Activity calls are given as the source filed them. The calls are words filed in the database; no cut-off is given here.
Attribute measured: inhibition

1. O=C(O[C@@H]1Cc2c(O)cc(O)cc2O[C@@H]1c1cc(O)c(O)c(O)c1)c1cc(O)c(O)c(O)c1	53%
2. O=C(O)CCO/N=C/c1ccc(O)cc1O	68%
3. O=C(O)CO/N=C/c1cccc(OCC(=O)O)c1	inactive
4. O=C(O)CO/N=C/c1cc(Br)cc(Br)c1OCC(=O)O	inactive

Tell me its inhibition on Transthyretin (Homo sapiens) (UniProt P02766): O=C(O)CO/N=C/c1ccc(OCC(=O)O)cc1
inactive

----------
molecular target: Transthyretin (Homo sapiens) (UniProt P02766); assay: Stabilization of wild type human transthyretin expressed in Escherichia coli BL21(DE3) assessed as fibril formation at 7.2 uM preincubated for 30 mins with transthyretin followed by measuring after 72 hrs maintaining pH of 4.4 by UV-Visible spectrophotometer relative to control
Attribute measured: Activity

1. O=C(O)CCO/N=C/c1cc(Br)cc(Br)c1O	16%

Specify Activity for O=C(O)CO/N=C/c1ccccc1O and stop.
100%

Specify Activity for O=C(O)CO/N=C/c1cc(Br)cc(Br)c1OCC(=O)O and stop.
86%

Specify Activity for O=C(O)CO/N=C/c1cccc(O)c1 and stop.
100%

These entries and their values trace back to ChEMBL document CHEMBL4725384.
